Here the recorded Selectivity BRD4(2)/BRD4(1) is given for each entry.
# Measurement target: first bromodomain of BRD4 (Homo sapiens (Human), UniProt O60885)
# Test: Bromoscan binding assay BRD4 (1)
# Study conditions: ratio BRD4(2) Kd / BRD4(1) Kd
// no unit, no text: just the number

Guide cases for Selectivity BRD4(2)/BRD4(1), answers given:
COc1c(F)c(NC(=O)c2cc3c(nc2N2CCOCC2)COC3)cc2c(C)cc(=O)[nH]c12 [Example 9]	17
CCN(c1nc2c(cc1C(=O)Nc1cc(OC)c3[nH]c(=O)cc(C)c3c1)COC2)C(C)C [Example 28]	30
COc1cc(NC(=O)c2cc3c(nc2N2CCOCC2)CNC3)cc2c(C)cc(=O)[nH]c12 [Example 1]	75
COc1cc(NC(=O)c2cc3c(nc2N2C4CCCC2CC4)COC3)cc2c(C)cc(=O)[nH]c12 [Example 21]	233
CCN1Cc2cc(C(=O)Nc3cc(OC)c4[nH]c(=O)cc(C)c4c3)c(N3CCOCC3)nc2C1 [Example 34]	32
COc1cc(NC(=O)c2cc3c(nc2N2CC4C(C2)C4(F)F)COC3)cc2c(C)cc(=O)[nH]c12 (stereo not shown) [Example 5]	12
COc1cc(NC(=O)c2cc3c(nc2N2C4CCC2COC4)COC3)cc2c(C)cc(=O)[nH]c12 [Example 17]	44
COc1cc(NC(=O)c2cc3c(nc2N2CCC[C@@H]2C)COC3)cc2c(C)cc(=O)[nH]c12 [Example 25]	30

Fill in: Selectivity BRD4(2)/BRD4(1) of COc1cc(NC(=O)c2cc3c(nc2N2C[C@H](F)[C@@H](F)C2)COC3)cc2c(C)cc(=O)[nH]c12 (racemic) [Example 43] is ___
22

Fill in: Selectivity BRD4(2)/BRD4(1) of COc1cc(NC(=O)c2cc3c(nc2N2CC4COCC4C2)COC3)cc2c(C)cc(=O)[nH]c12 (stereo not shown) [Example 20] is ___
49

Fill in: Selectivity BRD4(2)/BRD4(1) of COc1cc2[nH]c(=O)cc(C)c2cc1NC(=O)c1cc2c(nc1N1CCOCC1)COC2 [Example 14] is ___
15

Fill in: Selectivity BRD4(2)/BRD4(1) of COc1cc(NC(=O)c2cc3c(nc2N2CCOCC2)CCC3)cc2c(C)cc(=O)[nH]c12 [Example 29] is ___
106

---

Here the recorded pKd is given for each entry.
# Measurement target: second bromodomain of BRD4 (Homo sapiens (Human))
# Test: Bromoscan binding assay BRD4 (2)
# Study conditions: geometric mean where multiple measurements have been made
# Description: Compounds were assayed for binding affinity using bromoscan assays and a phosphodiesterase three assay. Bromoscan assays were run by DiscoveRx Corporation. […] The bromodomain concentration in the eluates was measured by qPCR (quantitative real-time polymerase chain reaction). Binding constants (Kds) were calculated with a standard dose-response curve using the Hill equation: Response=Blackground+((Signal-Background)/(1+Kd^Hill Slope/Dose^Hill Slope)). […]
pKd field: float, defined as -log10 of concentration (mol/L).

Guide cases for pKd, answers given:
COc1cc(NC(=O)c2cc3c(nc2N2CCOCC2)CNC3)cc2c(C)cc(=O)[nH]c12	6.22
Cc1cc(=O)[nH]c2c(OCCO)cc(NC(=O)c3cc4c(nc3N3CCOCC3)COC4)cc12	6.40
CCOc1cc(NC(=O)c2cc3c(nc2N2CCOCC2)COC3)cc2c(C)cc(=O)[nH]c12	5.09
COc1cc(NC(=O)c2cc3c(nc2N2CCOCC2)CN(C)C3)cc2c(C)cc(=O)[nH]c12	6.52

Next item in the queue.
Fill in: pKd of COc1cc(NC(=O)c2cc3c(nc2N2CC4C(C2)C4(F)F)COC3)cc2c(C)cc(=O)[nH]c12 (centres unmarked) is ___
6.70

---

Here the recorded Selectivity BRD4(2)/BRD4(1) is given for each entry.
# Measurement target: first bromodomain of BRD4 (Homo sapiens (Human), UniProt O60885)
# Test: Bromoscan binding assay BRD4 (1)
# Study conditions: ratio BRD4(2) Kd / BRD4(1) Kd
// no unit, no text: just the number

Guide cases for Selectivity BRD4(2)/BRD4(1), answers given:
COc1cc(NC(=O)c2cc3c(nc2C2=CCCC2)COC3)cc2c(C)cc(=O)[nH]c12 [Example 3]	62
COc1cc(NC(=O)c2cc3c(nc2N2CCOCC2)COC3C)cc2c(C)cc(=O)[nH]c12 (stereo not drawn) [Example 31]	45
CCOc1cc(NC(=O)c2cc3c(nc2N2CCOCC2)COC3)cc2c(C)cc(=O)[nH]c12 [Example 12]	93
COc1cc(NC(=O)c2cc3c(nc2N2C[C@@H](F)[C@@H](F)C2)COC3)cc2c(C)cc(=O)[nH]c12 [Example 42]	16

Fill in: Selectivity BRD4(2)/BRD4(1) of COc1cc(NC(=O)c2cc3c(nc2N(C)CC2CC2)COC3)cc2c(C)cc(=O)[nH]c12 [Example 26] is ___
61

Fill in: Selectivity BRD4(2)/BRD4(1) of CCN(CC)c1nc2c(cc1C(=O)Nc1cc(OC)c3[nH]c(=O)cc(C)c3c1)COC2 [Example 27] is ___
24

Fill in: Selectivity BRD4(2)/BRD4(1) of Cc1cc(=O)[nH]c2c(C)cc(NC(=O)c3cc4c(nc3N3CCOCC3)COC4)cc12 [Example 7] is ___
178

Fill in: Selectivity BRD4(2)/BRD4(1) of COc1cc(NC(=O)c2cc3c(nc2N2CCC[C@H]2C)COC3)cc2c(C)cc(=O)[nH]c12 [Example 18] is ___
17

---

# Measurement target: first bromodomain of BRD4 (Homo sapiens (Human), UniProt O60885)
# Test: Bromoscan binding assay BRD4 (1)
# Study conditions: ratio BRD4(2) Kd / BRD4(1) Kd
Here the recorded Selectivity BRD4(2)/BRD4(1) is given for each entry.
// no unit, no text: just the number

Guide cases for Selectivity BRD4(2)/BRD4(1), answers given:
COc1cc(NC(=O)c2cc3c(nc2N2CCOCC2)CN(C)C3)cc2c(C)cc(=O)[nH]c12	18
COc1cc(NC(=O)c2cc3c(nc2N2CCOCC2)CN(C2COC2)C3)cc2c(C)cc(=O)[nH]c12	23

Next item in the queue.
Fill in: Selectivity BRD4(2)/BRD4(1) of "Cc1cc(=O)[nH]c2c3c(c(NC(=O)c4cc5c(nc4N4CCOCC4)COC5)cc12)CCO3" is ___
45

---

Here the recorded pKd is given for each entry.
# Measurement target: first bromodomain of BRD4 (Homo sapiens (Human), UniProt O60885)
# Test: Bromoscan binding assay BRD4 (1)
# Study conditions: Bromoscan; geometric mean where multiple measurements have been made
pKd field: float, defined as -log10 of concentration (mol/L).

Guide cases for pKd, answers given:
COc1cc(NC(=O)c2cc3c(nc2N2CCOCC2)COC3C)cc2c(C)cc(=O)[nH]c12 (stereo not shown)	7.66
COc1cc(NC(=O)c2cc3c(nc2N2CC4C(C2)C4(F)F)COC3)cc2c(C)cc(=O)[nH]c12 (stereo not shown)	7.77
COc1cc(NC(=O)c2cc3c(nc2N2CC4CC2(C)C4)COC3)cc2c(C)cc(=O)[nH]c12	7.54

Fill in: pKd of "COc1cc(NC(=O)c2cc3c(nc2N2CCC[C@@H]2C)COC3)cc2c(C)cc(=O)[nH]c12" is ___
6.82

---

# Measurement target: first bromodomain of BRD4 (Homo sapiens (Human))
# Test: Bromoscan binding assay BRD4 (1)
# Study conditions: ratio BRD4(2) Kd / BRD4(1) Kd
Result type: Selectivity BRD4(2)/BRD4(1)
// no unit, no text: just the number

Guide cases for Selectivity BRD4(2)/BRD4(1), answers given:
COc1cc(NC(=O)c2cc3c(nc2C2=CCOCC2)COC3)cc2c(C)cc(=O)[nH]c12	41
COc1cc(NC(=O)c2cc3c(nc2N2C[C@H]4CCO[C@H]4C2)COC3)cc2c(C)cc(=O)[nH]c12 (racemic)	22

Fill in: Selectivity BRD4(2)/BRD4(1) of "COc1cc(NC(=O)c2cc3c(nc2N2CCC(F)(F)C2)COC3)cc2c(C)cc(=O)[nH]c12" is ___
43

---

# Measurement target: first bromodomain of BRD4 (Homo sapiens (Human))
# Test: Bromoscan binding assay BRD4 (1)
# Study conditions: Bromoscan; geometric mean where multiple measurements have been made
Result type: Kd (nM)
Output spec: scalar in nM, unitless text.

Guide cases for Kd, answers given:
COc1cc(NC(=O)c2cc3c(nc2N2CC4COCC4C2)COC3)cc2c(C)cc(=O)[nH]c12 (stereo not shown) [Example 20]	70
COc1cc(NC(=O)c2cc3c(nc2N2CCOCC2)CCC3)cc2c(C)cc(=O)[nH]c12 [Example 29]	18
COc1cc(NC(=O)c2cc3c(nc2N2CCOCC2)COC3)cc2c(C)cc(=O)[nH]c12 [Example 15]	14

Fill in: Kd of COc1cc(NC(=O)c2cc3c(nc2N2CC4CCOC4C2)COC3)cc2c(C)cc(=O)[nH]c12 (stereo not shown) [Example 19] is ___
180
